Reported IC50 values, Cytochrome P450 3A4 (Homo sapiens).

smiles-input | IC50
COC(=S)NC[C@H]1CN(c2ccc(N3CCNN(C(=O)C(F)F)CC3)c(F)c2)C(=O)O1 | > 20 µM
CNC(=O)N1CCN(c2ccc(N3C[C@H](CNC(=S)OC)OC3=O)cc2F)CCN1 | > 20 µM

* * *

test system: Staphylococcus aureus; assay: Antibacterial activity against Staphylococcus aureus SR20549 clinical isolate assessed as growth inhibition by broth microdilution method; assay type: functional
Flag rule - MIC less than 0.5 µg/mL flags 1 (yes); the remaining entries get 0 (no).

smiles-input | classification
CC(=O)N1CCN(c2c(F)cc(N3C[C@H](Cn4ccnn4)OC3=O)cc2F)CCN1 | 0 (no)
COC(=S)NC[C@H]1CN(c2ccc(N3CCNN(C(=O)C(F)F)CC3)c(F)c2)C(=O)O1 | 1 (yes)
CONC(=O)N1CCN(c2ccc(N3C[C@H](CNC(=S)OC)OC3=O)cc2F)CCN1 | 0 (no)
O=C(NO)N1CCN(c2c(F)cc(N3C[C@H](Cn4ccnn4)OC3=O)cc2F)CCO1 | 0 (no)
NC(=O)N1CCN(c2c(F)cc(N3C[C@H](Cn4ccnn4)OC3=O)cc2F)CCN1 | 0 (no)
CC(=O)NC[C@H]1CN(c2cc(F)c(N3CCn4c(=O)c5cccnc5n4CC3)c(F)c2)C(=O)O1 | 0 (no)
CC(=O)NC[C@H]1CN(c2cc(F)c(N3CCn4c(=O)c5cc(Br)cnc5n4CC3)c(F)c2)C(=O)O1 | 0 (no)
CC(=O)NC[C@H]1CN(c2cc(F)c(N3CCON(C(C)=O)CC3)c(F)c2)C(=O)O1 | 0 (no)
COC(=S)NC[C@H]1CN(c2ccc(N3CCNN(C=O)CC3)c(F)c2)C(=O)O1 | 1 (yes)
CC(=O)NC[C@H]1CN(c2ccc(N3CCn4c(=O)c5cccnc5n4CC3)c(F)c2)C(=O)O1 | 0 (no)
CNC(=O)N1CCN(c2ccc(N3C[C@H](CNC(=S)OC)OC3=O)cc2F)CCN1 | 1 (yes)
CNC(=O)N1CCN(c2c(F)cc(N3C[C@H](CNC(=S)OC)OC3=O)cc2F)CCN1 | 1 (yes)
NC(=O)N1CCN(c2c(F)cc(N3C[C@H](Cn4ccnn4)OC3=O)cc2F)CCO1 | 0 (no)
O=C(NO)N1CCN(c2c(F)cc(N3C[C@H](Cn4ccnn4)OC3=O)cc2F)CCN1 | 0 (no)
CC(=O)N1CCN(c2c(F)cc(N3C[C@H](CNC(C)=S)OC3=O)cc2F)CCO1 | 1 (yes)
CC(=O)NC[C@H]1CN(c2cc(F)c(N3CCn4c(=O)c5cc(Cl)cnc5n4CC3)c(F)c2)C(=O)O1 | 0 (no)
Nc1cnc2c(c1)c(=O)n1n2CCN(c2c(F)cc(N3C[C@H](Cn4ccnn4)OC3=O)cc2F)CC1 | 0 (no)
CC(=O)NC[C@H]1CN(c2ccc(-c3ccc(N4CCON(C(=O)CO)CC4)nc3)c(F)c2)C(=O)O1 | 0 (no)
COC(=S)NC[C@H]1CN(c2cc(F)c(N3CCNN(C(N)=O)CC3)c(F)c2)C(=O)O1 | 1 (yes)
O=C1O[C@@H](Cn2ccnn2)CN1c1ccc(-c2ccc(N3CCNOCC3)nc2)c(F)c1 | 0 (no)
COC(=S)NC[C@H]1CN(c2ccc(N3CCNN(C(N)=O)CC3)c(F)c2)C(=O)O1 | 1 (yes)
O=C(CO)N1CCN(c2ccc(-c3ccc(N4C[C@H](Cn5ccnn5)OC4=O)cc3F)cn2)CCO1 | 0 (no)
O=C1O[C@@H](Cn2ccnn2)CN1c1ccc(N2CCn3c(=O)c4cccnc4n3CC2)c(F)c1 | 0 (no)
COC(=S)NC[C@H]1CN(c2ccc(N3CCn4c(=O)c5cccnc5n4CC3)c(F)c2)C(=O)O1 | 1 (yes)
CC(=O)NC[C@H]1CN(c2ccc(-c3ccc(N4CCNOCC4)nc3)c(F)c2)C(=O)O1 | 0 (no)
CC(=S)NC[C@H]1CN(c2ccc(N3CCNN(C(N)=O)CC3)c(F)c2)C(=O)O1 | 1 (yes)
